System: SK-MEL-5 melanoma
Assay: NCI-60 one-dose screen, 48 h (100 = growth as untreated, 0 = no growth, -100 = all killed)
Conditions: 10 µM unless noted
The panel holds about 83,000 compounds, 20% with a hit somewhere; the sample as a whole holds those more often.
Entry flag: Fulfilled if growth reaches 90%; Not fulfilled if it does not.

// below: answered molecules
[[record]]
molecule = "CCOC(=O)c1nc(Nc2ccc(NC(=O)Nc3ccc(F)cc3)cc2)c2ccccc2n1"
group = "Fulfilled"

[[record]]
molecule = "Cc1c(-c2nc3ccc(F)cc3c(=O)[nH]2)c2ccccc2n1C"
group = "Not fulfilled"

[[record]]
molecule = "Cc1cccc2c1NC(=O)C2(c1ccc(O)cc1)c1ccc(O)cc1"
group = "Fulfilled"

[[record]]
molecule = "O=C1c2cc(Cl)ccc2S(=O)(=O)c2c(NCCCNCCO)nc3ccccc3c21"
group = "Not fulfilled"


Lab note: next molecule to report on.
QUERY: Reported growth at or above 90%? Nc1ncnc2c1N=C(c1ccc3c(c1)OCO3)CC(c1ccc([N+](=O)[O-])cc1)N2 (stereo unspecified)
RESULT: Not fulfilled

###

System: COLO 205 colon
Test: NCI-60 one-dose screen, 48 h (100 = growth as untreated, 0 = no growth, -100 = all killed)
Settings: 10 µM unless noted
The panel holds about 83,000 compounds, 20% with a hit somewhere; the sample as a whole holds those more often.
MEASURE_NAME: growth (%)
The reply should contain only the number, in %.

In the examples that follow, each entry is paired with its recorded growth.
[[record]]
compound = "O=c1oc2ccccc2cc1C1=NN=C(SCc2ccccc2)SC1"
assay_result = 113

[[record]]
compound = "COC(=O)[C@H]1CCCN1C[C@@H](O)CN1C(=O)/C(=C\\c2cc(OC)c(OC)c(OC)c2)c2ccccc21"
assay_result = 121

[[record]]
compound = "CN1C(=O)/C(=C/c2cn(-c3ccccc3)nc2-c2ccccc2)SC1=S"
assay_result = 124

[[record]]
compound = "COc1ccc(OC)c(C(=O)/C=C/c2cc3c(c(OC)c2OC)OCO3)c1"
assay_result = 95.8

[[record]]
compound = "CCOc1ccc(NC(=O)CSc2oc(-c3ccccc3)nc2S(=O)(=O)c2ccc(F)cc2)cc1"
assay_result = 93.2

[[record]]
compound = "O=c1oc2c(cnc3ccccc32)cc1-c1ccsc1"
assay_result = 112

[[record]]
compound = "CCN(C(=O)N1CCN(c2cc3c(cc2F)c(=O)c(C(=O)O)cn3C2CC2)CC1)c1nc(-c2ccc(Cl)cc2)cs1"
assay_result = 0.749

[[record]]
compound = "O=C(/C=C/c1cccs1)c1ccc(Cl)nc1"
assay_result = 108


QUERY: growth lookup needed for `COc1cc(-c2nc(SCCC(C)C)nc(Nc3ccccc3Cl)c2C#N)cc(OC)c1OC` , thanks.
RESULT: 109

QUERY: Which measured growth value corresponds to Nc1ncnc2c1N=C(c1ccc3c(c1)OCO3)CC(c1ccc([N+](=O)[O-])cc1)N2 (stereo unspecified) ?
RESULT: 97.6

QUERY: growth lookup needed for `COc1ccc2cc(C(=O)c3coc4ccc(O)cc34)ccc2c1` , thanks.
RESULT: 101

###

System: SK-MEL-5 melanoma
Test: NCI-60 one-dose screen, 48 h
Settings: 10 µM unless noted
Compounds without any hit were thinned out: in the full panel of roughly 83,000, 20% have a hit. Activity calls are given as the source filed them. How the source made its calls: active means growth percent below 10; inactive means the rest.
Result category, one only: Yes = active, No = inactive

QUERY: Short answer needed: outcome of this test for O=C1CNC(c2ccccc2)C(c2ccccc2)N1 (configuration not stated) ?
RESULT: No

QUERY: // param item: `Cc1noc(C)c1C(=O)OCc1coc2ccccc2c1=O` ; yields the recorded call
RESULT: No

QUERY: Query: recorded result category for `Cc1cc2c(O)c(-c3cccc(Cl)c3)c3sc(=O)oc3c2cc1C` in this test
RESULT: No

QUERY: Hi, do you know how CCO/C=N/C1=C(C#N)C(c2ccc(OC)cc2)c2sc3c(F)cccc3c2O1 (configuration not stated) came out in this test?
RESULT: Yes

QUERY: Which outcome was assigned to `Cc1ccc2c3c(c(=O)[nH]c2c1)C1(C(C#N)=C(N)O3)c2cc(Br)ccc2-c2ccc(Br)cc21` in this test?
RESULT: No

QUERY: How was `COc1ccc(-c2nc(SCC(C)C)nc(N/N=C\c3ccc(F)cc3)c2C#N)cc1` classified in this test?
RESULT: No

QUERY: Please let me know the test result on file for `CC(C)=NNc1ccccn1` .
RESULT: No

QUERY: Per the records of this test, what outcome belongs to `O=C(c1ccc(Cl)cc1)N1CCN(c2ccnc3cc(Cl)ccc23)CC1` ?
RESULT: No

QUERY: Tell me the recorded outcome of this test for `Cc1nc(-c2ccccc2)cc2c(O)c(C(=O)NN)[nH]c(=O)c12` .
RESULT: No

QUERY: Check the results log: what was the call for `CS(=O)(=O)c1cccc(-c2c(-c3cccc(OS(N)(=O)=O)c3)nc3sccn23)c1` ?
RESULT: No

###

Tested on: HS 578T breast
Assay: NCI-60 one-dose screen, 48 h (100 = growth as untreated, 0 = no growth, -100 = all killed)
Settings: 10 µM unless noted
This is part of a sample that, as a whole, favours compounds with a hit. Of some 83,000 tested, about 20% had one in any assay.
# thresholds on growth define classes: interval 1 (below 60%), interval 2 (60% to below 80%), interval 3 (80% or more)

Observe how each entry below is paired with its result.
[[record]]
molecule = "CCN1CC(=O)N(/N=C2\\C(=O)Nc3ccccc32)C1=S"
target_or_test_system = "HS 578T breast"
group = "interval 3"

[[record]]
molecule = "Nc1ncnc2c1N=C(c1ccc3c(c1)OCO3)CC(c1ccc([N+](=O)[O-])cc1)N2 (configuration not stated)"
target_or_test_system = "HS 578T breast"
group = "interval 2"

[[record]]
molecule = "O=C(Nc1cccnc1Nc1ccc(F)cc1)c1cn(Cc2cccc(Oc3ccccc3)c2)nn1"
target_or_test_system = "HS 578T breast"
group = "interval 2"

[[record]]
molecule = "CCc1ccc(Oc2cn[nH]c2-c2ccc(OCCc3ccc(F)cc3)cc2O)cc1"
target_or_test_system = "HS 578T breast"
group = "interval 3"

[[record]]
molecule = "CC1Cc2c(Cl)ncnc2N(C)c2ccc(F)cc21 (configuration not stated)"
target_or_test_system = "HS 578T breast"
group = "interval 2"


In the following, a different molecule is considered.
QUERY: Which bin, given its growth, does `CCCCNc1ccc(C#N)c(OCCN(CC)CC)c1` occupy?
RESULT: interval 3

###

Tested on: NCI-H322M lung
Experiment: NCI-60 one-dose screen, 48 h
Settings: 10 µM unless noted
Compounds without any hit were thinned out: in the full panel of roughly 83,000, 20% have a hit. Calls of active or inactive are those of the source. The calls were made as follows: active = growth percent below 10; inactive = the rest.
# valid calls are active, inactive; nothing else

Solved cases below.
[[record]]
compound = "CCCCC(=O)Nc1ncc(Cc2ccc(Cl)cc2)s1"
group = "inactive"

[[record]]
compound = "COc1ccc2c(O)c(/C=C3\\N=Nc4ccccc43)oc2c1C[C@@H]1CCNC[C@H]1F"
group = "inactive"

[[record]]
compound = "Cc1nc2ncnc(Cl)c2[nH]1"
group = "inactive"


QUERY: For `Cc1nnc(NC(=O)c2nc(S(=O)(=O)Cc3ccc(F)cc3)ncc2Cl)s1` , what call appears in the results of this test?
RESULT: inactive

###

Below: a set of entries, each annotated with reported growth.
System: HOP-92 NSCLC
Assay: NCI-60 one-dose screen, 48 h (100 = growth as untreated, 0 = no growth, -100 = all killed)
Details: 10 µM unless noted
This is part of a sample that, as a whole, favours compounds with a hit. Of some 83,000 tested, about 20% had one in any assay.
Please state the figure in %; there is no need to write the unit.

Look over these answered cases.
[[record]]
compound = "O=C1c2cccc(NCCN=Cc3cc(O)ccc3O)c2C(=O)c2c(NCCN=Cc3cc(O)ccc3O)cccc21"
measure_name = "growth"
assay_result = -25.5

[[record]]
compound = "CCOC(=O)c1cc(C(=O)c2cc(OC)c(OC)c(OC)c2)n2ccc(-c3ccncc3)cc12"
measure_name = "growth"
assay_result = 65.8

[[record]]
compound = "CN[C@]12CC3(C=CC(=O)C=C3)O[C@@]1(Cc1ccc(OC)cc1)N(C)C(=O)N2"
measure_name = "growth"
assay_result = 39.3


QUERY: Which growth is reported for this compound? `COC(=O)/C=C1/SC(=Nc2ccc(C)cc2)N(CCc2c[nH]c3ccc(O)cc23)C1=O`
RESULT: 53.7

QUERY: # query: growth of entry `COc1ccc(C(=O)Nc2ncc(Cc3cccc(Cl)c3)s2)cc1OC`
RESULT: 54.6

QUERY: // growth lookup, key: `CCc1ccc(Oc2cn[nH]c2-c2ccc(OCCc3ccc(F)cc3)cc2O)cc1`
RESULT: 83.2
